Recorded IC50 for the following compounds
Target: ROCK2 (human)

Before answering, review these 4 worked examples.
CN(CC(N)c1ccc(C(=O)Nc2ccncc2)cc1)C(=O)C1(c2ccc(Cl)c(Cl)c2)CC1 (stereo not given)    500 to 5000 nM
NC(CNC(=O)C1(c2ccsc2)CC1)c1ccc(C(=O)Nc2ccncc2)cc1 (stereo not given)    50 to 500 nM
CN(CC(N)c1ccc(C(=O)Nc2ccncc2)cc1)C(=O)C1(c2ccc(Cl)c(Cl)c2)CCC1 (stereo not given)    500 to 5000 nM
CN(CC(N)c1ccc(C(=O)Nc2ccncc2)cc1)C(=O)C1(c2ccc(F)c(F)c2)CCC1 (stereo not given)    500 to 5000 nM

Input NC(CNC(=O)C1CCCO1)c1ccc(C(=O)Nc2ccncc2)cc1 (stereo not given) . Output IC50: 500 to 5000 nM
